- Tested on: RS2-3 minigene (Firefly Luciferase), HEK-293T cells
- experiment.summary: Luciferase induction assay, RS2-3 with splice modulator compounds in HEK-293T cells
- Type: cell-based
- reported.conditions: Homo sapiens, RS2-3, 1,000 nM, 18 hours, n of 3, read-out: Mean fold-induction of luciferase (relative to vehicle control)
readout.kind: fold induction at 1 µM
Provide a numeric answer; units are not to be included.

# annotated cases, reported fold induction at 1 µM shown
Request: fold induction at 1 µM, test system RS2-3 minigene (Firefly Luciferase), HEK-293T cells, entry Cc1cn2cc(-c3nc(=O)n4cc(N5CCN[C@@H](C)C5)cc(F)c4n3)cc(F)c2n1 [Compound 116B]
39.9

Request: fold induction at 1 µM, test system RS2-3 minigene (Firefly Luciferase), HEK-293T cells, entry CCN1CC(c2ccc(-c3ccc(-c4cn5cc(C)nc5c(C)n4)cc3O)nn2)C1 [Compound 32A]
23.3

Request: fold induction at 1 µM, test system RS2-3 minigene (Firefly Luciferase), HEK-293T cells, entry `Cc1cc(-c2ccc(-c3ccc(C4CNC4)nn3)c(O)c2)cc2cn(C)nc12`
13.9

Request: fold induction at 1 µM, test system RS2-3 minigene (Firefly Luciferase), HEK-293T cells, entry Cc1cc2cc(-c3nc(=O)n4cc(N5CCNC(C)(C)C5)cc(F)c4n3)cc(C)n2n1 [Compound 135B]
14.7

Request: fold induction at 1 µM, test system RS2-3 minigene (Firefly Luciferase), HEK-293T cells, entry Cc1cn2cc(-c3nc(=O)n4cc(N5CCN[C@@H](C)C5)cc(F)c4n3)cc(C)c2n1 [Compound 121B]
28.8

Others:
Request: fold induction at 1 µM, test system RS2-3 minigene (Firefly Luciferase), HEK-293T cells, entry Cc1cn2cc(-c3ccc(-c4ccc(C5CNC5)nn4)c(O)c3F)cc(F)c2n1 [Compound 10A]
29.2

Request: fold induction at 1 µM, test system RS2-3 minigene (Firefly Luciferase), HEK-293T cells, entry Cc1cn2cc(-c3ccc(-c4ccc(C5CN(Cc6cocn6)C5)nn4)c(O)c3)cc(F)c2n1 [Compound 101A]
31.5

Request: fold induction at 1 µM, test system RS2-3 minigene (Firefly Luciferase), HEK-293T cells, entry Cc1cn2cc(-c3nc(=O)n4cc(N5CCN[C@@H](C)C5)cc(C)c4n3)cc(F)c2n1 [Compound 117B]
39.9

Request: fold induction at 1 µM, test system RS2-3 minigene (Firefly Luciferase), HEK-293T cells, entry CCN1CC(c2ccc(-c3ccc(-c4ccc5nn(C)cc5c4)cc3O)nn2)C1 [Compound 24A]
42.6

----------
- System: RS1-10 minigene (Firefly Luciferase), HEK-293T cells
- experiment.summary: Luciferase induction assay, RS1-10 with splice modulator compounds in HEK-293T cells
- Assay type: cell-based
- reported.conditions: Homo sapiens, RS1-10, 100 nM, 18 hours, n of 3, read-out: Mean fold-induction of luciferase (relative to vehicle control)
Would you mind classing the entries by fold induction at 0.1 µM? Ranges: low group: < 30; middle group: ≥ 30 and < 60; high group: ≥ 60

Assign a bin to Cc1cn2cc(-c3nc(=O)n4cc(N5CCNCC5)ccc4n3)cc(F)c2n1.Cl [Compound 100B, hydrochloride]
low group

Others:
Assign a bin to Cc1cn2cc(-c3nc(=O)n4cc(N5CCNCC5)ccc4n3)cc(C)c2n1 [Compound 126B]
low group
